Please respond with reported log10 IC50 for every item in the list.
# system_tested: UniProt:P81908
# Sequence (P81908 whole entry): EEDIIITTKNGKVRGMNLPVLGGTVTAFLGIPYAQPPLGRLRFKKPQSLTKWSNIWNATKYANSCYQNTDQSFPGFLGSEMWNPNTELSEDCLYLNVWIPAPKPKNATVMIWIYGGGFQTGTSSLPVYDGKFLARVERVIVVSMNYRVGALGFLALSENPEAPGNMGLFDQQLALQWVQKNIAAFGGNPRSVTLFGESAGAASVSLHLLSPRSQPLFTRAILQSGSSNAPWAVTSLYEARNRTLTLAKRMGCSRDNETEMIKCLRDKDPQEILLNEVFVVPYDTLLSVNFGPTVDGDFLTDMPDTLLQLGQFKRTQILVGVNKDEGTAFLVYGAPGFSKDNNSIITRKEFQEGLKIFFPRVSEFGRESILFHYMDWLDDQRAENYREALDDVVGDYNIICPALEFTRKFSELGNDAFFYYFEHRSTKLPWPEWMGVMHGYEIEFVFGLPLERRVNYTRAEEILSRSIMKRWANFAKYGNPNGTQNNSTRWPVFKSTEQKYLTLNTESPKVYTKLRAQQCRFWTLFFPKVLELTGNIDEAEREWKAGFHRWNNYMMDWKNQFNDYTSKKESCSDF
# experiment_description: Inhibition of horse serum butyrylcholinesterase using butyrylthiocholine iodide as substrate preincubated for 15 mins followed by substrate addition by Ellman's method
Would you kindly interpret these values as log10 of IC50 expressed in µM?

See these solved cases before continuing.
COc1ccccc1NC(=O)Nc1nc(-c2cc3ccccc3o2)cs1
1.91
O=C(Nc1ccc(Br)cc1)Nc1nc(-c2cc3cc(Br)ccc3o2)cs1
1.55
O=C(Nc1ccccc1)Nc1nc(-c2cc3ccccc3o2)cs1
1.33
O=C(Nc1ccc(F)cc1)Nc1nc(-c2cc3ccccc3o2)cs1
0.87
O=C(Nc1cccc([N+](=O)[O-])c1)Nc1nc(-c2cc3ccccc3o2)cs1
1.43
O=C(Nc1ccc(Br)cc1)Nc1nc(-c2cc3ccccc3o2)cs1
1.74
O=C(Nc1nc(-c2cc3ccccc3o2)cs1)Nc1ccccc1[N+](=O)[O-]
1.90
O=C(Nc1ccc([N+](=O)[O-])cc1)Nc1nc(-c2cc3cc(Br)ccc3o2)cs1
0.49

Could you tell me log10 IC50 for each of these compounds? They are listed below.
1. COc1cccc(NC(=O)Nc2nc(-c3cc4ccccc4o3)cs2)c1
2. O=C(Nc1ccc(I)cc1)Nc1nc(-c2cc3cc(Br)ccc3o2)cs1
3. COc1ccc(NC(=O)Nc2nc(-c3cc4ccccc4o3)cs2)cc1

Result ::
1: 1.78; 2: 1.64; 3: 1.87

* * *

Recorded log10 IC50 values (UniProt:O42275) are given below.
Sequence (O42275 whole entry): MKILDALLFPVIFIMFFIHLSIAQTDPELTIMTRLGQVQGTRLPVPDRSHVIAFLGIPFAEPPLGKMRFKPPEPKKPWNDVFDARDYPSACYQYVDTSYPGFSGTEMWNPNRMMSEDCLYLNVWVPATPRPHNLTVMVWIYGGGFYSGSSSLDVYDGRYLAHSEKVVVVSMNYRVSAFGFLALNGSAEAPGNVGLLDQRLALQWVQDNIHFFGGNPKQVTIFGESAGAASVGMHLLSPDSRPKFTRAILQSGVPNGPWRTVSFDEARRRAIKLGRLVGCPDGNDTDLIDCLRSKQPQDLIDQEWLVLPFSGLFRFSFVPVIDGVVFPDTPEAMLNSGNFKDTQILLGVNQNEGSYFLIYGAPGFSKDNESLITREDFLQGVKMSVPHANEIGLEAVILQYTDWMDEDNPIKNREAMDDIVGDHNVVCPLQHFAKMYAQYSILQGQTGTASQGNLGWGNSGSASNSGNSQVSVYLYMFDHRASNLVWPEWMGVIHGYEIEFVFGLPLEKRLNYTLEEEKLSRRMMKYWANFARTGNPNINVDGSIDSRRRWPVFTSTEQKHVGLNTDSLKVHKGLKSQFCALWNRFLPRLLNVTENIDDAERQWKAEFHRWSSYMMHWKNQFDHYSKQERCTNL
Would you kindly interpret these values as log10 of IC50 expressed in µM?

See these solved cases before continuing.
Cc1ccc(NC(=O)Nc2nc(-c3cc4cc(Br)ccc4o3)cs2)cc1
1.51
O=C(Nc1nc(-c2cc3ccccc3o2)cs1)Nc1ccccc1[N+](=O)[O-]
1.62
O=C(Nc1nc(-c2cc3ccccc3o2)cs1)Nc1ccccc1F
1.49

Could you tell me log10 IC50 for each of these compounds? They are listed below.
1. O=C(Nc1ccccc1)Nc1nc(-c2cc3cc([N+](=O)[O-])ccc3o2)cs1
2. O=C(Nc1ccc(I)cc1)Nc1nc(-c2cc3ccccc3o2)cs1
3. O=C(Nc1ccc(Br)cc1)Nc1nc(-c2cc3cc([N+](=O)[O-])ccc3o2)cs1
4. O=C(Nc1ccc(Cl)cc1)Nc1nc(-c2cc3cc([N+](=O)[O-])ccc3o2)cs1
5. COc1cccc(NC(=O)Nc2nc(-c3cc4ccccc4o3)cs2)c1
6. O=C(Nc1ccc(Cl)cc1)Nc1nc(-c2cc3cc(Br)ccc3o2)cs1

Result ::
0.65
1.33
1.45
1.49
1.69
1.35

Could you tell me log10 IC50 for each of these compounds? They are listed below.
1. O=C(Nc1nc(-c2cc3cc(Br)ccc3o2)cs1)Nc1ccccc1[N+](=O)[O-]
2. O=C(Nc1ccc(F)cc1)Nc1nc(-c2cc3cc([N+](=O)[O-])ccc3o2)cs1
3. COc1ccc(NC(=O)Nc2nc(-c3cc4cc([N+](=O)[O-])ccc4o3)cs2)cc1
4. O=C(Nc1ccc(I)cc1)Nc1nc(-c2cc3cc(Br)ccc3o2)cs1
5. COc1ccccc1NC(=O)Nc1nc(-c2cc3ccccc3o2)cs1
6. O=C(Nc1cccc(F)c1)Nc1nc(-c2cc3ccccc3o2)cs1
7. O=C(Nc1ccc(Cl)c(Cl)c1)Nc1nc(-c2cc3ccccc3o2)cs1

Result ::
[0.95, 1.61, 1.53, 0.81, 1.79, 1.69, 1.72]

Could you tell me log10 IC50 for each of these compounds? They are listed below.
1. O=C(Nc1ccc(F)cc1)Nc1nc(-c2cc3cc(Br)ccc3o2)cs1
2. O=C(Nc1cccc(Cl)c1)Nc1nc(-c2cc3ccccc3o2)cs1
3. O=C(Nc1cccc([N+](=O)[O-])c1)Nc1nc(-c2cc3ccccc3o2)cs1
4. O=C(Nc1ccc([N+](=O)[O-])cc1)Nc1nc(-c2cc3cc(Br)ccc3o2)cs1
5. O=C(Nc1cccc(F)c1)Nc1nc(-c2cc3cc(Br)ccc3o2)cs1
6. O=C(Nc1ccc(Br)cc1)Nc1nc(-c2cc3ccccc3o2)cs1

Result ::
[1.55, 0.99, 1.61, 0.68, 1.47, 1.52]

Could you tell me log10 IC50 for each of these compounds? They are listed below.
1. O=C(Nc1ccc(F)cc1)Nc1nc(-c2cc3ccccc3o2)cs1
2. COc1cccc(NC(=O)Nc2nc(-c3cc4cc(Br)ccc4o3)cs2)c1
3. O=C(Nc1ccc(Br)cc1)Nc1nc(-c2cc3cc(Br)ccc3o2)cs1
4. COc1ccccc1NC(=O)Nc1nc(-c2cc3cc(Br)ccc3o2)cs1

Result ::
1.74
1.47
1.08
1.90

Could you tell me log10 IC50 for each of these compounds? They are listed below.
1. Cc1ccc(NC(=O)Nc2nc(-c3cc4ccccc4o3)cs2)cc1
2. O=C(Nc1nc(-c2cc3cc(Br)ccc3o2)cs1)Nc1ccccc1F
3. O=C(Nc1cccc([N+](=O)[O-])c1)Nc1nc(-c2cc3cc(Br)ccc3o2)cs1
4. O=C(Nc1ccc(Cl)cc1)Nc1nc(-c2cc3ccccc3o2)cs1

Result ::
1.02
0.59
1.24
1.63

Reference for the values: ChEMBL document CHEMBL3616456
